Origin of values: patent EP4471048A1

Target protein (sequence): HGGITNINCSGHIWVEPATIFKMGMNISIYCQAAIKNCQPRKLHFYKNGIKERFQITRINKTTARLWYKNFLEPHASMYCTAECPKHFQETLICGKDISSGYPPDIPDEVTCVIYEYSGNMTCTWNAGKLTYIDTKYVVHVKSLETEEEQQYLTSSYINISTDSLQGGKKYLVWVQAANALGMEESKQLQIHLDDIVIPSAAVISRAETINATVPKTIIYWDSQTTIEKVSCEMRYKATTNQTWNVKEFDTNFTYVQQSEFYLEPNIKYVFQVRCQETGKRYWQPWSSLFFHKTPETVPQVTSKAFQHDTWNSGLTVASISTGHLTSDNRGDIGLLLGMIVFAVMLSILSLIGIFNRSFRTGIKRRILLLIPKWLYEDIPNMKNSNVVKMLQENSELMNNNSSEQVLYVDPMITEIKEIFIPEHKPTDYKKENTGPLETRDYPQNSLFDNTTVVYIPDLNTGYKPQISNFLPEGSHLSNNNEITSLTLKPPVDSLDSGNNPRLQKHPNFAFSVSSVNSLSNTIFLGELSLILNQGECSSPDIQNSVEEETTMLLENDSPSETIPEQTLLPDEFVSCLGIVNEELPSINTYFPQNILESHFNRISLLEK
*1 amine or outer side, *2 acyl side, *3 side chain or, on linkers, in order; H or OH if unused. Where a SMILES comes first, the peptide text is derived from it. Bridges are numbered along the chain shown (N, C = ends). [ ]: non-standard residue; d: D form. 2Nal = N[C@@H](Cc1ccc2ccccc2c1)C(=O)O; AEF = NCCOc1ccc(C[C@H](N)C(=O)O)cc1; X1 = O=C(Cc1ccc(CN[*:1])cc1)[*:2]; αMeL = CC(C)C[C@](C)(N)C(=O)O; CH2COCH2 = O=C(C[*:1])C[*:2]; 3Amb = NCc1cccc(C(=O)O)c1; NMeS = CN[C@@H](CO)C(=O)O; Dab = NCC[C@H](N)C(=O)O
Hi there, I'd appreciate the recorded IC50 for every entry that follows.
Answers are plain numbers, in nM.

Record excerpt, results attached:
Query :: Name the recorded IC50 for CC(C)C[C@]1(C)NC(=O)[C@H](Cc2ccc3ccccc3c2)NC(=O)[C@H](Cc2ccc(OCCN)cc2)NC(=O)[C@@H]2CSCC(=O)CSC[C@H](NC(=O)[C@H](CO)N(C)C(=O)Cc3ccc(cc3)CNC(=O)CC[C@@H](C(=O)N[C@@H](CCN)C(N)=O)NC1=O)C(=O)N[C@@H](Cc1c[nH]c3ccccc13)C(=O)N[C@@H](CCC(N)=O)C(=O)N2 [Ref 141, reference compound] ([X1][NMeS]CWQC[AEF][2Nal][αMeL]E[Dab]-NH2; linker 3-6 via CH2COCH2; lactam N-10) .
Result :: 3.5

Query :: Name the recorded IC50 for CC(C)C[C@]1(C)NC(=O)[C@H](Cc2ccc3ccccc3c2)NC(=O)[C@H](Cc2ccc(OCCN)cc2)NC(=O)[C@@H]2CSCC(=O)CSC[C@H](NC(=O)[C@H](CO)NC(=O)c3cccc(c3)CNC(=O)CC[C@@H](C(=O)N[C@H](CCCNC(=N)N)C(N)=O)NC1=O)C(=O)N[C@@H](Cc1c[nH]c3ccccc13)C(=O)N[C@@H](CCC(N)=O)C(=O)N2 [Ref 41, reference compound] ([3Amb]SCWQC[AEF][2Nal][αMeL]E[dR]-NH2; linker 3-6 via CH2COCH2; lactam N-10) .
Result :: 2.8

Could you now look at the following compound, please?
Query :: Name the recorded IC50 for CC[C@H](C)[C@@H]1NC(=O)[C@@H]2CCCCNC(=O)CC[C@@H](C(=O)NCCCCc3cccnc3)NC(=O)[C@](C)(C(C)C)NC(=O)[C@H](Cc3ccc4ccccc4c3)NC(=O)[C@H](Cc3ccc(OCCN)cc3)NC(=O)[C@H](CCC(=O)N2)NC(=O)[C@H](CCC(N)=O)NC(=O)[C@H](Cc2c[nH]c3ccccc23)NC(=O)[C@H](C(C)C)NC1=O .
Result :: 200

* * *

Target: UniProt:Q5VWK5
Test: Functional inhibition of IL-23 mediated STAT3 signalling (phospho-STAT3 MSD) in DB cells
Assay type: cell-based
Conditions: Table 3-2; maximal inhibitory response, DB cells, hIL-23 at EC80; read-out: hIL-23 (pSTAT3) antagonist % inhibition
*1 amine or outer side, *2 acyl side, *3 side chain or, on linkers, in order; H or OH if unused. Where a SMILES comes first, the peptide text is derived from it. Bridges are numbered along the chain shown (N, C = ends). [ ]: non-standard residue; d: D form. X7 = O=C(C[C@H](CCCN[*:3])N[*:2])[*:1]; 2Nal = N[C@@H](Cc1ccc2ccccc2c1)C(=O)O; AEF = NCCOc1ccc(C[C@H](N)C(=O)O)cc1; 3Pal = N[C@@H](Cc1cccnc1)C(=O)O; αMeL = CC(C)C[C@](C)(N)C(=O)O; Dab = NCC[C@H](N)C(=O)O; X6 = O=C(CN[*:2])[*:1]
READOUT_KIND: Emax (%)
Numbers only, in %.

Record excerpt, results attached:
Query :: Observed Emax on UniProt:Q5VWK5 for CC[C@H](C)[C@@H]1NC(=O)[C@@H]2CCCCNC(=O)CC[C@@H](C(=O)N[C@@H](CCN)C(=O)N[C@@H](Cc3cccnc3)C(=O)NC)NC(=O)[C@](C)(CC(C)C)NC(=O)[C@H](Cc3ccc4ccccc4c3)NC(=O)[C@H](Cc3ccc(OCCN)cc3)NC(=O)[C@H](CCC(=O)N2)NC(=O)[C@H](CCC(N)=O)NC(=O)[C@H](Cc2c[nH]c3ccccc23)NC(=O)[C@H](C(C)C)NC1=O , please.
Result :: 101

Query :: Observed Emax on UniProt:Q5VWK5 for CC(C)C[C@]1(C)NC(=O)[C@H](Cc2ccc3ccccc3c2)NC(=O)[C@H](Cc2ccc(OCCN)cc2)NC(=O)[C@@H]2CCC(=O)N[C@@H](CCCNC(=O)CC[C@@H](C(=O)N[C@@H](CCN)C(=O)N[C@@H](Cc3cccnc3)C(N)=O)NC1=O)CC(=O)N[C@@H]([C@@H](C)O)C(=O)N[C@@H](C(C)C)C(=O)N[C@@H](Cc1c[nH]c3ccccc13)C(=O)N[C@@H](CCC(N)=O)C(=O)N2 [Compound 12] (TVWQE[AEF][2Nal][αMeL]E[Dab][3Pal]-NH2; linker N-5-9 via X7) , please.
Result :: 100

Next:
Query :: Observed Emax on UniProt:Q5VWK5 for CNC(=O)[C@H](Cc1cccnc1)NC(=O)[C@H](CCN)NC(=O)[C@@H]1CCC(=O)NCC(=O)NCCCC[C@@H]2NC(=O)CC[C@H](NC(=O)[C@H](CCC(N)=O)NC(=O)[C@H](Cc3c[nH]c4ccccc34)NC2=O)C(=O)N[C@@H](Cc2ccc(OCCN)cc2)C(=O)N[C@@H](Cc2ccc3ccccc3c2)C(=O)N[C@@](C)(CC(C)C)C(=O)N1 [Compound 46] (KWQE[AEF][2Nal][αMeL]E[Dab][3Pal]-NHMe; linker 1-8 via X6; lactam N-4) , please.
Result :: 102

* * *

Target protein (sequence): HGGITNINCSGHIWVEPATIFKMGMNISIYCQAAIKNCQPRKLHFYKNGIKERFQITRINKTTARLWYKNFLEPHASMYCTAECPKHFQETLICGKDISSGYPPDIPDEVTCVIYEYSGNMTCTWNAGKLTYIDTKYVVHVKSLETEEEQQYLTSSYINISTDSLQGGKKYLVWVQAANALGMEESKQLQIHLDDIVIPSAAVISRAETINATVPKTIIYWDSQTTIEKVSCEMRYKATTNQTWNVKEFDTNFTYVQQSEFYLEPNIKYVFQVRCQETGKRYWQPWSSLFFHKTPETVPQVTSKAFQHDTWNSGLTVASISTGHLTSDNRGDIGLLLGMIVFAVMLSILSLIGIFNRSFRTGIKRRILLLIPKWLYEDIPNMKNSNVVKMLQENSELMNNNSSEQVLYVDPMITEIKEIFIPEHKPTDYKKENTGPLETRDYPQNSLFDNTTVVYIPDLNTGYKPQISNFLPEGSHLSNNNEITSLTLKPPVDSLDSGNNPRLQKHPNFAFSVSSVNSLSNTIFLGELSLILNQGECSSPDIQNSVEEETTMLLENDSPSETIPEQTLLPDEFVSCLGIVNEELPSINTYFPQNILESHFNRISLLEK
pIC50: −log10 of the molar value. *1 amine or outer side, *2 acyl side, *3 side chain or, on linkers, in order; H or OH if unused. Where a SMILES comes first, the peptide text is derived from it. Bridges are numbered along the chain shown (N, C = ends). [ ]: non-standard residue; d: D form. 2Nal = N[C@@H](Cc1ccc2ccccc2c1)C(=O)O; AEF = NCCOc1ccc(C[C@H](N)C(=O)O)cc1; X1 = O=C(Cc1ccc(CN[*:1])cc1)[*:2]; αMeL = CC(C)C[C@](C)(N)C(=O)O; CH2COCH2 = O=C(C[*:1])C[*:2]
Label scheme for pIC50: lower than 9 is Criterion not met, 9 and above is Criterion met.

// below: answered molecules
Query :: Please indicate if the recorded pIC50 for CC(C)C[C@]1(C)NC(=O)[C@H](Cc2ccc3ccccc3c2)NC(=O)[C@H](Cc2ccc(OCCN)cc2)NC(=O)[C@@H]2CSCC(=O)CSC[C@H](NC(=O)[C@H](CO)NC(=O)Cc3ccc(cc3)CNC(=O)CC[C@@H](C(=O)N[C@H](CCCNC(=N)N)C(N)=O)NC1=O)C(=O)N[C@@H](Cc1c[nH]c3ccccc13)C(=O)N[C@@H](CCC(N)=O)C(=O)N2 [Ref 80, reference compound] ([X1]SCWQC[AEF][2Nal][αMeL]E[dR]-NH2; linker 3-6 via CH2COCH2; lactam N-10) meets or exceeds 9.
Result :: Criterion met

Query :: Please indicate if the recorded pIC50 for CC(C)C[C@]1(C)NC(=O)[C@H](Cc2ccc3ccccc3c2)NC(=O)[C@H](Cc2ccc(OCCN)cc2)NC(=O)[C@@H]2CCC(=O)N[C@H](CCCCNC(=O)CC[C@@H](C(=O)N[C@@H](CCN)C(=O)N[C@@H](Cc3cccnc3)C(N)=O)NC1=O)C(=O)N[C@@H]([C@@H](C)O)C(=O)N[C@@H](C(C)C)C(=O)N[C@@H](Cc1c[nH]c3ccccc13)C(=O)N[C@@H](CCC(N)=O)C(=O)N2 meets or exceeds 9.
Result :: Criterion met

Query :: Please indicate if the recorded pIC50 for CC[C@H](C)[C@@H]1NC(=O)[C@@H]2CCCCNC(=O)CC[C@@H](C(=O)N[C@@H](Cc3cn(C)cn3)C(=O)N[C@@H](Cc3cccnc3)C(=O)NC)NC(=O)[C@](C)(CC(C)C)NC(=O)[C@H](Cc3ccc4ccccc4c3)NC(=O)[C@H](Cc3ccc(OCCN)cc3)NC(=O)[C@H](CCC(=O)N2)NC(=O)[C@H](CCC(N)=O)NC(=O)[C@H](Cc2c[nH]c3ccccc23)NC(=O)[C@H](C(C)C)NC1=O meets or exceeds 9.
Result :: Criterion met

Next:
Query :: Please indicate if the recorded pIC50 for COc1ccc(C[C@@H]2NC(=O)[C@@H]3CCC(=O)N[C@@H](CCCCNC(=O)CC[C@@H](C(=O)N[C@@H](CCCCNC(=O)CCc4ncc[nH]4)C(N)=O)NC(=O)[C@](C)(CC(C)C)NC(=O)[C@H](Cc4ccc5ccccc5c4)NC2=O)C(=O)N[C@@H]([C@@H](C)O)C(=O)N[C@@H](C(C)C)C(=O)N[C@@H](Cc2c[nH]c4ccccc24)C(=O)N[C@@H](CCC(N)=O)C(=O)N3)cc1 meets or exceeds 9.
Result :: Criterion not met
